# Tested on: MV4-11 human acute myeloid leukemia cell with FLT3-ITD mutation
# TEST DESCRIPTION: MV4-11 cell proliferation assay (CellTiter 96)
# Assay type: cell-based
# EXPERIMENTAL CONTEXT: Homo sapiens, MV4-11, 72 h, MV4-11 cells, 72 hours treatment, CellTiter96; read-out: anti-proliferation activity MV4-11 (FLT3-ITD), IC50 ranking
Below, each of the molecules is paired with its reported IC50 value.
QUANTITY: IC50

{"SMILES STRING": "Cn1ncc2ccc(-c3n[nH]c4c3Cc3sc(-c5cncc(C(=O)N6CCOCC6)c5)cc3-4)cc21", "RESULT": "< 30 nM"}
{"SMILES STRING": "COc1ccc(-c2cc3c(s2)Cc2c(-c4ccc5cnn(C)c5c4)n[nH]c2-3)cn1", "RESULT": "100 to 300 nM"}
{"SMILES STRING": "Cn1ncc2ccc(-c3n[nH]c4c3Cc3sc(-c5ccc(N6CCOCC6)nc5)cc3-4)cc21", "RESULT": "100 to 300 nM"}
{"SMILES STRING": "Cn1ncc2ccc(-c3n[nH]c4c3Cc3sc(-c5ccc(CN6CC(F)(F)C6)cc5)cc3-4)cc21", "RESULT": "30 to 100 nM"}
{"SMILES STRING": "Cc1cc(-c2cc3c(s2)Cc2c(-c4ccc5cnn(C)c5c4)n[nH]c2-3)ccc1CN1CCOCC1", "RESULT": "100 to 300 nM"}
{"SMILES STRING": "Cn1ncc2ccc(-c3n[nH]c4c3Cc3sc(-c5ccc(C(=O)N6CCOCC6)c(F)c5)cc3-4)cc21", "RESULT": "< 30 nM"}
{"SMILES STRING": "Cn1ncc2ccc(-c3n[nH]c4c3Cc3sc(C5=CCN(C(=O)N6CCOCC6)CC5)cc3-4)cc21", "RESULT": "< 30 nM"}
{"SMILES STRING": "CC(C)Cn1ncc2ccc(-c3n[nH]c4c3Cc3sc(-c5ccc(CN6CCOCC6)cc5)cc3-4)cc21", "RESULT": "100 to 300 nM"}
{"SMILES STRING": "Cn1ncc2ccc(-c3n[nH]c4c3Cc3sc(-c5ccc(CN6CCNCC6=O)cc5)cc3-4)cc21", "RESULT": "< 30 nM"}
{"SMILES STRING": "Cn1ncc2ccc(-c3n[nH]c4c3Cc3sc(-c5cnc(C(=O)N6CCOCC6)nc5)cc3-4)cc21", "RESULT": "< 30 nM"}
{"SMILES STRING": "Cc1ccc(-c2cc3c(s2)Cc2c(-c4ccc5cnn(C)c5c4)n[nH]c2-3)cn1", "RESULT": "< 30 nM"}
{"SMILES STRING": "CN1CCN(C(=O)c2ccc(-c3cc4c(s3)Cc3c(-c5ccc6cnn(C)c6c5)n[nH]c3-4)cc2)CC1", "RESULT": "< 30 nM"}
{"SMILES STRING": "Cn1ncc2ccc(-c3n[nH]c4c3Cc3sc(-c5ccc(CN6CCOCC6)c(F)c5F)cc3-4)cc21", "RESULT": "300 to 1000 nM"}
{"SMILES STRING": "Cn1ncc2ccc(-c3n[nH]c4c3Cc3sc(-c5ccc(CN6CCCC6=O)cc5)cc3-4)cc21", "RESULT": "< 30 nM"}
{"SMILES STRING": "Cn1ncc2ccc(-c3n[nH]c4c3Cc3sc(-c5ccc(CN6CCCCC6)cc5)cc3-4)cc21", "RESULT": "< 30 nM"}
